List of IC50 values.
- Tested on: K. pneumoniae (ATCC10031)
- measurement_description: 50% growth inhibitory concentration (IC50) determination assay
- Format: cell-based
- condition_summary: Klebsiella pneumoniae, Iso-Sensitest broth, 0.098 = detection limit

Examples from the recorded data:
CNc1cc(F)c(F)c2c1[nH]c1ncc(-c3cnc4c(c3)c(=O)c(C(=O)O)cn4C)c(N3CC4C(CN(C)C)CO[C@@H]4C3)c12 (stereo partly drawn)    < 0.098 µM
CNc1cc(F)cc2c1[nH]c1ncc(-c3cnc4c(c3)c(=O)c(C(=O)O)cn4C)c(N3CCO[C@@H](CN(C)C)C3)c12 [Example 3.02A]    < 0.098 µM

API: the following record is the query input.
Request: Quick check: IC50 of CNc1cc(F)cc2c1[nH]c1ncc(-c3cnc4c(c3)c(=O)c(C(=O)O)cn4C)c(N3CCO[C@H](CN(C)C)C3)c12 [Example 3.02B] ?
Response: < 0.098 µM
